Assay: binders of probe aFST on microarray, primary screen, stem cell growth factor project, biochemical, small-molecule microarray, fluorescence 635/667 (AID 1086);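 note: score merges 667 nm fluorescence with signal-to-noise of each printed compound spot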
Settings: higher = more signal

[
  {
    "compound": "CC1C2C(CCCO)=CC(C3C(=O)N(C)C(=O)C23)N1Cc1cccc(OC(F)(F)F)c1 (configuration not stated)",
    "composite z-score": 0.155
  },
  {
    "compound": "C=C(COC)C(=O)CC[C@H](OC(C)=O)c1ccccc1OCCO",
    "composite z-score": -0.215
  },
  {
    "compound": "COC(=O)[C@@]1(Cc2ccc(F)cc2)[C@H]2c3cc(C(=O)N4CCCC4)n(Cc4ccc(OC(F)(F)F)cc4)c3C[C@H]2CN1C(=O)c1ccccc1",
    "composite z-score": 0.401
  },
  {
    "compound": "CCCCN1CC=CC23O[C@@H]4/C=C\\CCC(C)OC(=O)C4[C@H]2C(=O)N(CCO)[C@@H]3C1=O (some centres not stated)",
    "composite z-score": -0.14
  },
  {
    "compound": "C=CCNC(=O)[C@H]1[C@@H]2C(=O)O[C@@H](c3ccccc3)[C@@H](c3ccccc3)N2[C@@H](c2ccc(OCCO)cc2)[C@]12C(=O)N(C(=O)OCCOC)c1ccc(C#CCNC(N)=O)cc12",
    "composite z-score": 0.942
  },
  {
    "compound": "[N-]=[N+]=Nc1ccccc1C[C@]1(C(=O)N2CCCCC2)N=C(c2ccc(OCCCO)cc2)O[C@H]1c1ccccc1",
    "composite z-score": 0.933
  },
  {
    "compound": "COC(=O)[C@]1(Cc2ccccc2CN=[N+]=[N-])N=C(c2ccc(OCCCO)cc2)O[C@@H]1c1ccccc1N=[N+]=[N-]",
    "composite z-score": 0.163
  }
]
